Cited source: patent US20230340151A1

Measured koff, listed per entry.
target: T1, Human GUCY2C ECD Cleaved (human, UniProt P25092 24-430); experiment: SPR, human IgG1 against human GUCY2c ECD
T1 construct: also called human GUCY2c extracellular domain protein (ECD)
T1 sequence (P25092 other isoform, or with tags, fused parts or gaps): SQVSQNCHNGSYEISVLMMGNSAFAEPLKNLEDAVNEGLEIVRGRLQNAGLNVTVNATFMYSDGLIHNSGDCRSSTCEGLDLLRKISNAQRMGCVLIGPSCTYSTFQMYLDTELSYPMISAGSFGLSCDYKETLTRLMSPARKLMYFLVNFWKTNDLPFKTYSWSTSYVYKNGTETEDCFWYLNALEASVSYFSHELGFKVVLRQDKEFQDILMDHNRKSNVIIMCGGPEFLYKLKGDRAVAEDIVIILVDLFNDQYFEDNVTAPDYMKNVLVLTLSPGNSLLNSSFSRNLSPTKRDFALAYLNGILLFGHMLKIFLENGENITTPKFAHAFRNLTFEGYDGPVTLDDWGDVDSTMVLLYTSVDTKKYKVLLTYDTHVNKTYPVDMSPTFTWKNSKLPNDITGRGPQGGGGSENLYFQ
measured.property: koff (s⁻¹)

>  <binder>
GUCY2C-1715 (antibody, human IgG1, V domains shown, full human IgG1/kappa) VH: EVQLVESGGGLVQPGGSLRLSCAASGFTFSSYWMHWVRQAPGKGLEWIGEIKPSTKYTNVHEKFKDRFTISVDKAKNSAYLQMNSLRAEDTAVYYCTRTIFTNEGYWFFDVWGQGTLVTVSS VL: DIQLTQSPSSLSASVGDRVTITCRASESVSIYGSSLMQWYQQKPGKAPKLLIYAASKLASGVPSRFSGSGSGTDFTLTISSLQPEDFATYYCQQTRKAYTFGQGTKLEIK

>  <observed.result>
0.0011

$$$$
>  <binder>
GUCY2C-1713 (antibody, human IgG1, V domains shown, full human IgG1/kappa) VH: EVQLVESGGGLVQPGGSLRLSCAASGFTFSHTWMHWVRQAPGKGLEWIGEIKPSRGFTNVHEKFKDRFTISVDKAKNSAYLQMNSLRAEDTAVYYCTRTITTTQGYWFFDVWGQGTLVTVSS VL: DIQLTQSPSSLSASVGDRVTITCRASESVNWYGSSLMQWYQQKPGKAPKLLIYAASKLASGVPSRFSGSGSGTDFTLTISSLQPEDFATYYCQQTRKAYTFGQGTKLEIK

>  <observed.result>
0.00108

$$$$
>  <binder>
GUCY2C-1706 (antibody, human IgG1, V domains shown, full human IgG1/kappa) VH: EVQLVESGGGLVQPGGSLRLSCAASGFTFSSTWMHWVRQAPGKGLEWIGEIKPSNELTNVHEKFKDRFTISVDKAKNSAYLQMNSLRAEDTAVYYCTRTITTTEGYWFFDVWGQGTLVTVSS VL: DIQLTQSPSSLSASVGDRVTITCRASESVDYYGSSLMQWYQQKPGKAPKLLIYAASKLASGVPSRFSGSGSGTDFTLTISSLQPEDFATYYCQQTRKAYTFGQGTKLEIK

>  <observed.result>
0.00193

$$$$
>  <binder>
GUCY2C-1710 (antibody, human IgG1, V domains shown, full human IgG1/kappa) VH: EVQLVESGGGLVQPGGSLRLSCAASGFTFSSYWMHWVRQAPGKGLEWIGEIKPSRGWTNVHEKFKDRFTISVDKAKNSAYLQMNSLRAEDTAVYYCARTITTTEGYWFFDVWGQGTLVTVSS VL: DIQLTQSPSSLSASVGDRVTITCRASESVDYYRHSLMQWYQQKPGKAPKLLIYAASKLASGVPSRFSGSGSGTDFTLTISSLQPEDFATYYCQQTRKAYTFGQGTKLEIK

>  <observed.result>
0.00147

$$$$
>  <binder>
GUCY2C-1705 (antibody, human IgG1, V domains shown, full human IgG1/kappa) VH: EVQLVESGGGLVQPGGSLRLSCAASGFTFSSYWMHWVRQAPGKGLEWIGEIKPSRGFTNVHEKFKDRFTISVDKAKNSAYLQMNSLRAEDTAVYYCTRTITTTEGYWFFDVWGQGTLVTVSS VL: DIQLTQSPSSLSASVGDRVTITCRASESVDYYGSSLMQWYQQKPGKAPKLLIYAASKLASGVPSRFSGSGSGTDFTLTISSLQPEDFATYYCQQTRKAYTFGQGTKLEIK

>  <observed.result>
0.00149

$$$$
>  <binder>
GUCY2C-1696 (antibody, human IgG1, V domains shown, full human IgG1/kappa) VH: EVQLVESGGGLVQPGGSLRLSCAASGFTFSTRWMHWVRQAPGKGLEWIGEIKPSNKLTNVHEKFKDRFTISVDKAKNSAYLQMNSLRAEDTAVYYCARTITTTEGYWFLSDWGQGTLVTVSS VL: DIQLTQSPSSLSASVGDRVTITCRASESVDYYGHSLMQWYQQKPGKAPKLLIYAASKLASGVPSRFSGSGSGTDFTLTISSLQPEDFATYYCQQTRKAYTFGQGTKLEIK

>  <observed.result>
0.00179

$$$$
>  <binder>
GUCY2C-1708 (antibody, human IgG1, V domains shown, full human IgG1/kappa) VH: EVQLVESGGGLVQPGGSLRLSCAASGFTFSRPWMHWVRQAPGKGLEWIGEIKPSTGWTNVHEKFKDRFTISVDKAKNSAYLQMNSLRAEDTAVYYCTRTITTTTGYWFFDVWGQGTLVTVSS VL: DIQLTQSPSSLSASVGDRVTITCRASESVDYYKHSLMQWYQQKPGKAPKLLIYAASKLASGVPSRFSGSGSGTDFTLTISSLQPEDFATYYCQQTRKAYTFGQGTKLEIK

>  <observed.result>
0.00132

$$$$
>  <binder>
GUCY2C-1640 (antibody, human IgG1, kappa, V domains shown) VH: EVQLVESGGGLVQPGGSLRLSCAASGFTFSSYWMHWVRQAPGKGLEWIGEIKPSNELTNVHEKFKDRFTISVDKAKNSAYLQMNSLRAEDTAVYYCTRTITTTEGYWFFDVWGQGTLVTVSS VL: DIQLTQSPSSLSASVGDRVTITCRASESVDYYGSSLLQWYQQKPGKAPKLLIYAASKLASGVPSRFSGSGSGTDFTLTISSLQPEDFATYYCQQTRKAYTFGQGTKLEIKR

>  <observed.result>
0.00271

$$$$
>  <binder>
GUCY2C-1703 (antibody, human IgG1, V domains shown, full human IgG1/kappa) VH: EVQLVESGGGLVQPGGSLRLSCAASGFTFSSYWMHWVRQAPGKGLEWIGEIKPSNRWNNVHEKFKDRFTISVDKAKNSAYLQMNSLRAEDTAVYYCTRTITTTEGYWFFDVWGQGTLVTVSS VL: DIQLTQSPSSLSASVGDRVTITCRASESVDYYGSSLMQWYQQKPGKAPKLLIYAASKLASGVPSRFSGSGSGTDFTLTISSLQPEDFATYYCQQTRKAYTFGQGTKLEIK

>  <observed.result>
0.00214

$$$$
>  <binder>
GUCY2C-1714 (antibody, human IgG1, V domains shown, full human IgG1/kappa) VH: EVQLVESGGGLVQPGGSLRLSCAASGFTFSHTWMHWVRQAPGKGLEWIGEIKPSTKYTNVHEKFKDRFTISVDKAKNSAYLQMNSLRAEDTAVYYCARTIFTREGYWFFDVWGQGTLVTVSS VL: DIQLTQSPSSLSASVGDRVTITCRASESVNWYGSSLMQWYQQKPGKAPKLLIYAASKLASGVPSRFSGSGSGTDFTLTISSLQPEDFATYYCQQTRKAYTFGQGTKLEIK

>  <observed.result>
0.00124

$$$$
